Attribution: patent US20200048328A1

Task for the reader: assign each of the following binders its reported pIC50.
- assay_target: T1, human PCSK9 (human, UniProt Q8NBP7 31-692)
- T1 construct: also called hPCSK9; huPCSK9
- protocol_details: PCSK9:EGFA FRET 1, competition
Note on pIC50: it is the negative log10 of concentration, concentration in mol/L.

Given the entry PCSK9-PKE2 tandem 4472_H11 (designed binder, not shown: small tags and cut ends, The two parts are one polypeptide in the real molecule, joined by the undisclosed linker P (a code, not a proline); they are given here as separate chains.) PCSK9 10Fn3: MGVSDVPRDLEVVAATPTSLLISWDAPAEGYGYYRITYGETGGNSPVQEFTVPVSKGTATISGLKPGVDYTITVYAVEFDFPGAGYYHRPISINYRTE PKE2 10Fn3: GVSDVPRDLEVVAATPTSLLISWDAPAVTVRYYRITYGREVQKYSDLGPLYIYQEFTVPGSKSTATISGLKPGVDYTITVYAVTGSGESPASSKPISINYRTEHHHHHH , report its measured pIC50.
8.06

Given the entry PCSK9-PKE2 tandem 4472_A11 (designed binder, In the real molecule the two parts given here are one polypeptide, joined by the undisclosed linker B. They are written as two chains only because the linker has no letters., not shown: Linker 'B' joining ...NYRTE of the PCSK9 domain to GVSDV... of the PKE2 domain) PCSK9 domain: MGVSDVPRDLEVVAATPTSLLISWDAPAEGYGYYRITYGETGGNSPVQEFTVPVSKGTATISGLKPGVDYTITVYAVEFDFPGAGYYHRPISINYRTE PKE2 domain: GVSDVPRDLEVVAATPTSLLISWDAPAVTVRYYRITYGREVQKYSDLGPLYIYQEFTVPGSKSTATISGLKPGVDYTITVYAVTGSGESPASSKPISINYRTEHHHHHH , report its measured pIC50.
8.21

Given the entry PCSK9-PKE2 tandem Adnectin w/ his tag 4472_C06 (designed binder, also called ATI-1574; ADX_4472_C06) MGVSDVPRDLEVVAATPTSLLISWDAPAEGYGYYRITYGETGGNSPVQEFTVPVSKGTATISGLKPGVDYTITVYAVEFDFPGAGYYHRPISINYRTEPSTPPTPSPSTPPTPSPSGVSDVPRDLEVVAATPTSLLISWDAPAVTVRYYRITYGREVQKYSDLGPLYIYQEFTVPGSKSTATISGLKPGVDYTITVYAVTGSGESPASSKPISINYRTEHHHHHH , report its measured pIC50.
8.04
